system: CypA^V29T (UniProt P62937 1-165, V29T)
Sequence (P62937 whole entry V29T): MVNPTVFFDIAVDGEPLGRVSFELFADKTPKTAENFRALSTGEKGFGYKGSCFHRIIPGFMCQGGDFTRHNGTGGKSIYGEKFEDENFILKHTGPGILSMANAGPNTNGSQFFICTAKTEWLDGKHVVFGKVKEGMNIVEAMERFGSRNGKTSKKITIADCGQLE
procedure.details: NMR titration
property.measured: pKd
By convention, pKd is the negative base-10 log of a molar concentration.

Reported pKd ( GSFGPDLRAGD [FGP peptide] ) = 4.14

Each recorded value in this set is attributed to paper PMC5336394.
